Biological target: T1, dADAR-dsRBD1 (UniProt Q9NII1 48-140)
T1 sequence: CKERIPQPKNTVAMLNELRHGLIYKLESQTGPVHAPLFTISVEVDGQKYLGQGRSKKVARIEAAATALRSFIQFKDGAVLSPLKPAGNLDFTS
Assay: ITC
Value Type: pKd
# pKd: negative log10 of molar concentration; output just the value

Sure, the documented pKd for miR-16-1-M (dsRNA) RNA 1: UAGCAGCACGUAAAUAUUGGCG RNA 2: CCAGUAUUAACGUGCUGCUGAA is 6.11
